Assay: Membrane permeability test using Caco-2 cells with preincubation
Format: in vitro ADME
Settings: Caco-2; preincubation 20 to 24 hours; Apical FaSSIF/HBSS pH 6.0, Basal HBSS 4% BSA pH 7.4; 180 minutes; read-out: Caco2 Papp
Positions of bridges follow the written chain, without caps; N, C: chain ends. Non-standard residues stand in square brackets, D forms with d. Residues, ends and D or L forms follow the SMILES beside them. *: point of attachment. NMeF = CN[C@@H](Cc1ccccc1)C(=O)O; NMeI = CC[C@H](C)[C@H](NC)C(=O)O; NMeD = CN[C@@H](CC(=O)O)C(=O)O; NMeL = CN[C@@H](CC(C)C)C(=O)O; NMeV = CN[C@H](C(=O)O)C(C)C; d(β3hA) = C[C@@H](N)CC(=O)O; NMeA = CN[C@@H](C)C(=O)O; Piperidide = C1CCN(*)CC1; dNMeA = CN[C@H](C)C(=O)O; tBu = CC(C)(C)*
# reported Papp A→B; entries follow
Reply numerically in ×10⁻⁶ cm/s, unit not repeated.

[
  {
    "Compound": "CC[C@H](C)[C@@H]1NC(=O)[C@@H]2CCCN2C(=O)[C@H](C(C)C)N(C)C(=O)[C@@H](C)N(C)C(=O)C[C@@H](C)NC(=O)[C@H](C(C)C)N(C)C(=O)[C@H](Cc2ccccc2)N(C)C(=O)[C@H](COC(C)(C)C)NC(=O)[C@H](CC(C)C)N(C)C(=O)[C@H](C)N(C)C(=O)[C@H](CC(C)C)N(C)C(=O)[C@H]([C@@H](C)O)NC(=O)[C@H](Cc2ccccc2)N(C)C1=O [pd136] (cyclo(I[NMeF]T[NMeL][NMeA][NMeL]S(tBu)[NMeF][NMeV][d(β3hA)][dNMeA][NMeV]P))",
    "Papp A→B, ×10⁻⁶ cm/s": 0.53
  }
]

Prompt: Can you share its Papp A→B? I mean this compound: CC[C@H](C)[C@H]1C(=O)NCC(=O)N(C)[C@@H](CC(C)C)C(=O)N(C)[C@@H](C(C)C)C(=O)N(C)[C@@H](C)C(=O)N(C)[C@H](C(=O)N2CCCCC2)CC(=O)N(C)[C@@H](C)C(=O)N[C@@H](CC(C)C)C(=O)N(C)[C@@H](CC(C)C)C(=O)N[C@@H](COC(C)(C)C)C(=O)N(C)[C@@H](Cc2ccccc2)C(=O)N[C@@H](C)C(=O)N(C)[C@@H](Cc2ccccc2)C(=O)N1C [pd155] ([NMeA]L[NMeL]S(tBu)[NMeF]A[NMeF][NMeI]G[NMeL][NMeV][NMeA][NMeD]-Piperidide; lactam N-13)
Response: 0.87

###

# reported Caco2 Papp (10^-6 cm/sec); entries follow
System: Caco-2 cells
Assay: Membrane permeability test using Caco-2 cells with preincubation
Type: in vitro ADME
Settings: Caco-2 cells, preincubation 20 to 24 hours; apical FaSSIF/HBSS 1% DMSO pH 6.0, basal HBSS 4% BSA pH 7.4; basal sample at 180 minutes
Method: The permeability coefficient (Caco-2 Papp (cm/sec)) is calculated using a numerical expression 1. [Expression 1] Papp = (1)/(C1 (0) × S) × (dQ)/(dt) [formula] dQ/dt represents the permeation rate of drug (the amount of drug appearing on the Basal side per unit time), S represents the total surface area of cells, and C1(0) represents the concentration of drug added on the Apical side. […]
Starred links: 1 amine or outer side, 2 acyl side, 3 side chain; linkers in the order of their positions; H or OH if unused. Positions of bridges follow the written chain, without caps; N, C: chain ends. Non-standard residues stand in square brackets, D forms with d. Residues, ends and D or L forms follow the SMILES beside them. *: point of attachment. NMedβ3hAla = C[C@H](CC(=O)[*:2])N(C)[*:1]; NMeF = CN[C@@H](Cc1ccccc1)C(=O)O; NMeGABA = CN(CCCC(=O)[*:2])[*:1]; NMeI = CC[C@H](C)[C@H](NC)C(=O)O; NMeT = CN[C@H](C(=O)O)[C@@H](C)O; NMeD = CN[C@@H](CC(=O)O)C(=O)O; NMeL = CN[C@@H](CC(C)C)C(=O)O; NMeV = CN[C@H](C(=O)O)C(C)C; d(β3hA) = C[C@@H](N)CC(=O)O; NMeAbu = CC[C@H](NC)C(=O)O; NMeA = CN[C@@H](C)C(=O)O; Piperidide = C1CCN(*)CC1; dNMeA = CN[C@H](C)C(=O)O; Abu = CC[C@H](N)C(=O)O; NBuGly = CCCCNCC(=O)O; Sar = CNCC(=O)O; tBu = CC(C)(C)*

Reference set, count: 2
[
  {
    "Molecule": "CC[C@H](C)[C@@H]1NC(=O)[C@H](C)NC(=O)[C@H](CC(C)C)N(C)C(=O)[C@H](COC(C)(C)C)NC(=O)[C@H](CC(C)C)N(C)C(=O)[C@@H]2CCCN2C(=O)[C@H](Cc2ccccc2)NC(=O)[C@H]([C@@H](C)CC)N(C)C(=O)[C@H](CC(C)C)N(C)C(=O)CCCN(C)C(=O)C[C@@H](C(=O)N2CCCCC2)NC(=O)[C@H](Cc2ccccc2)N(C)C(=O)[C@H](CC)N(C)C1=O [pd098] ([NMeGABA][NMeL][NMeI]FP[NMeL]S(tBu)[NMeL]AI[NMeAbu][NMeF]D-Piperidide; lactam N-13)",
    "System Under Test": "Caco-2 cells",
    "Caco2 Papp (10^-6 cm/sec)": "0.57 10^-6 cm/sec"
  },
  {
    "Molecule": "CC[C@H]1C(=O)N(C)[C@@H](Cc2ccccc2)C(=O)N(C)[C@@H](CC(C)C)C(=O)N[C@@H](CC(C)C)C(=O)N(C)[C@@H](C(C)C)C(=O)N[C@H](C)CC(=O)N(C)CC(=O)N(C)[C@@H](C(C)C)C(=O)N(C)[C@@H](CC(C)C)C(=O)N(C)[C@@H](C)C(=O)N(C)[C@@H](CC(C)C)C(=O)N[C@@H]([C@@H](C)O)C(=O)N(C)CC(=O)N1C [pd140] (cyclo(L[NMeV][d(β3hA)][Sar][NMeV][NMeL][NMeA][NMeL]T[Sar][NMeAbu][NMeF][NMeL]))",
    "System Under Test": "Caco-2 cells",
    "Caco2 Papp (10^-6 cm/sec)": "0.31 10^-6 cm/sec"
  }
]

Prompt: Can you share its Caco2 Papp (10^-6 cm/sec)? I mean this molecule: CC[C@H](C)[C@@H]1NC(=O)[C@H](CC(C)C)N(C)C(=O)[C@H](CC(C)C)NC(=O)[C@H](C)N(C)C(=O)C[C@@H](C)NC(=O)[C@H](CC(C)C)NC(=O)[C@H](CC(C)C)N(C)C(=O)CN(C)C(=O)[C@H](C(C)C)NC(=O)[C@H]([C@@H](C)CC)N(C)C(=O)[C@H](CC(C)C)N(C)C(=O)[C@H](C)NC(=O)[C@H](Cc2ccccc2)N(C)C1=O [pd127] (cyclo(A[NMeL][NMeI]V[Sar][NMeL]L[d(β3hA)][NMeA]L[NMeL]I[NMeF]))
Response: 0.36 10^-6 cm/sec

Prompt: Can you share its Caco2 Papp (10^-6 cm/sec)? I mean this molecule: CC[C@H]1C(=O)N(C)[C@@H](C)C(=O)N[C@@H](CC(C)C)C(=O)N(C)[C@@H](C(C)C)C(=O)N[C@H](C)CC(=O)N[C@H](C(C)C)C(=O)N(C)[C@@H](CC(C)C)C(=O)N[C@@H](CC(C)C)C(=O)N(C)[C@@H](C(C)C)C(=O)N(C)[C@@H](CC(C)C)C(=O)N(C)CC(=O)N[C@@H]([C@@H](C)O)C(=O)N(C)[C@@H](Cc2ccccc2)C(=O)N[C@@H](COC(C)(C)C)C(=O)N1C [pd049] (cyclo(L[NMeV][NMeL][Sar]T[NMeF]S(tBu)[NMeAbu][NMeA]L[NMeV][d(β3hA)][dV][NMeL]))
Response: 0.32 10^-6 cm/sec

Prompt: Can you share its Caco2 Papp (10^-6 cm/sec)? I mean this molecule: CC[C@H]1C(=O)N(C)[C@H](C)CC(=O)N(C)[C@H](C)C(=O)N(C)[C@@H](C)C(=O)N(C)[C@@H](Cc2ccccc2)C(=O)N[C@@H](C(C)C)C(=O)N(C)[C@@H](CC(C)C)C(=O)N(C)[C@@H]([C@@H](C)O)C(=O)N(C)CC(=O)N[C@@H](C)C(=O)N(C)[C@@H](CC(C)C)C(=O)N[C@@H](COC(C)(C)C)C(=O)N(C)[C@@H](Cc2ccccc2)C(=O)N1C [pd150] (cyclo(A[NMeL]S(tBu)[NMeF][NMeAbu][NMedβ3hAla][dNMeA][NMeA][NMeF]V[NMeL][NMeT][Sar]))
Response: 0.29 10^-6 cm/sec

Prompt: Can you share its Caco2 Papp (10^-6 cm/sec)? I mean this molecule: CCCCN1CC(=O)N(C)[C@@H](Cc2ccccc2)C(=O)N[C@@H](CC(C)C)C(=O)N(C)[C@@H](C(C)C)C(=O)N(C)[C@@H](C)C(=O)N[C@@H](COC(C)(C)C)C(=O)N(C)[C@@H](CC)C(=O)N(C)[C@H](C(=O)N2CCCCC2)CC(=O)N(C)CC(=O)N(C)[C@@H](Cc2ccccc2)C(=O)N[C@@H]([C@@H](C)CC)C(=O)N(C)[C@@H](CC(C)C)C(=O)N(C)[C@@H]([C@@H](C)O)C1=O [pd168] ([Sar][NMeF]I[NMeL][NMeT][NBuGly][NMeF]L[NMeV][NMeA]S(tBu)[NMeAbu][NMeD]-Piperidide; lactam N-13)
Response: 1.11 10^-6 cm/sec

Prompt: Can you share its Caco2 Papp (10^-6 cm/sec)? I mean this molecule: CC[C@@H]1NC(=O)[C@H](Cc2ccccc2)N(C)C(=O)[C@@H]2CCCN2C(=O)[C@H](CC(C)C)N(C)C(=O)[C@H](C(C)C)NC(=O)[C@H](CC(C)C)N(C)C(=O)[C@H]([C@@H](C)O)NC(=O)[C@H](Cc2ccccc2)N(C)C(=O)CN(C)C(=O)C[C@@H](C)N(C)C(=O)[C@H](C(C)C)NC(=O)[C@H](COC(C)(C)C)NC(=O)[C@H](C)N(C)C1=O [pd146] (cyclo([Abu][NMeA]S(tBu)V[NMedβ3hAla][Sar][NMeF]T[NMeL]V[NMeL]P[NMeF]))
Response: 0.20 10^-6 cm/sec

Prompt: Can you share its Caco2 Papp (10^-6 cm/sec)? I mean this molecule: CC[C@@H]1NC(=O)[C@H](CC(C)C)N(C)C(=O)[C@H](COC(C)(C)C)NC(=O)[C@H](Cc2ccccc2)N(C)C(=O)[C@H](CC)NC(=O)[C@H](Cc2ccccc2)N(C)C(=O)[C@H](C)N(C)C(=O)[C@H](CC(C)C)N(C)C(=O)[C@H](CC(C)C)NC(=O)CCCN(C)C(=O)C[C@@H](C(=O)N2CCCCC2)NC(=O)[C@H](CC(C)C)N(C)C(=O)[C@H](C(C)C)NC(=O)[C@H](C)N(C)C1=O [pd016] ([NMeGABA]L[NMeL][NMeA][NMeF][Abu][NMeF]S(tBu)[NMeL][Abu][NMeA]V[NMeL]D-Piperidide; lactam N-14)
Response: 0.47 10^-6 cm/sec
